Molecular target: T1, extracellular domain of human BCMA (human, UniProt Q02223 1-54)
T1 construct: amine-linked to Octet AR2G tips; also called hsBCMA; BCMA (human)
T1 sequence: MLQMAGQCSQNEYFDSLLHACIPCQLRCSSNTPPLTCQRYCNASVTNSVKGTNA
Assay: Octet BLI; Fab 200 nM
PROPERTY: log10 Kd (log10 of the value in nM)
All values: log10 Kd [nM].

{"BINDER": "AB200-(2Vk35)_R2-VH-v52 (Fab, V domains shown) VH: QVQLVQSGAEVKKPGSSVKVSCKASGGSFSNYWIHWVRQAPGQGLEWMGATYRIQSDTYYAQKFKSRVTITADKSTSTAYMELSSLRSEDTAVYYCARGAIFHGYDVIDNWGQGTLVTVSS VL: DIQMTQSPSSLSASVGDRVTITCRASQSISSYINWYQQKPGKAPKLLIYATSNLQSGVPSRFSGSGSGTDFTLTISSLQPEDFATYYCQQYRRIPWTFGQGTKLEIKR", "log10 Kd": 0.80}

The binder listed as AB200-(2Vk35)_R2-VH-v76 (Fab, V domains shown) VH: QVQLVQSGAEVKKPGSSVKVSCKASGGTFSNYWIHWVRQAPGQGLEWMGATYRIQSDTYYNEKFKSRVTITADKSTSTAYMELSSLRSEDTAVYYCARGAIYHGFDVIDNWGQGTLVTVSS VL: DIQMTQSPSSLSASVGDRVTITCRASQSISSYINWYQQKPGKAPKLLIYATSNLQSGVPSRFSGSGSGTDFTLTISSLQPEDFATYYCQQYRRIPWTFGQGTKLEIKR has a reported log10 Kd of 0.29

The binder listed as AB200-(2Vk35)_R2-VH-v11 (Fab, V domains shown) VH: QVQLVQSGAEVKKPGSSVKVSCKASGGTYSNYWIHWVRQAPGQGLEWMGATYRSHSDTNYNEKFKSRVTITADKSTSTAYMELSSLRSEDTAVYYCARGAVYHGYDVIDNWGQGTLVTVSS VL: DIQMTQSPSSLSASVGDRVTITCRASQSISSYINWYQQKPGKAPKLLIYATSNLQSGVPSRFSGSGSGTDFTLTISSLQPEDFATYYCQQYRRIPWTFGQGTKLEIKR has a reported log10 Kd of 1.67

The binder listed as AB200-(2Vk35)_R2-VH-v49 (Fab, V domains shown) VH: QVQLVQSGAEVKKPGSSVKVSCKASGGTYSNYWIHWVRQAPGQGLEWMGATYRIQSTTYYNQKFKSRVTITADKSTSTAYMELSSLRSEDTAVYYCARGAIYHGYDVIENWGQGTLVTVSS VL: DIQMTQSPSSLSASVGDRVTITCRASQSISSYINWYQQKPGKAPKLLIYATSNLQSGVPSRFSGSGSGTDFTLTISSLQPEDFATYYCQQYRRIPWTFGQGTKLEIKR has a reported log10 Kd of 1.80

The binder listed as AB200-(2Vk35)_R2-VH-v69 (Fab, V domains shown) VH: QVQLVQSGAEVKKPGSSVKVSCKASGGTFSNYWIHWVRQAPGQGLEWMGATYRIQSDTNYNQKFKSRVTITADKSTSTAYMELSSLRSEDTAVYYCARGAVYHGYDVIDNWGQGTLVTVSS VL: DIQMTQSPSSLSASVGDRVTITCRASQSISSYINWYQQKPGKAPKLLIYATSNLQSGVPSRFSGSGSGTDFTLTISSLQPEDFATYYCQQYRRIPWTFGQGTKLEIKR has a reported log10 Kd of 1.21
